Give measured pKd for each item. Keep answers brief.
Biological target: T1, IL-11Rα as used in the Biacore kinetics of Example 14 (UniProt Q14626 23-363, limits assumed)
T1 sequence (looked up): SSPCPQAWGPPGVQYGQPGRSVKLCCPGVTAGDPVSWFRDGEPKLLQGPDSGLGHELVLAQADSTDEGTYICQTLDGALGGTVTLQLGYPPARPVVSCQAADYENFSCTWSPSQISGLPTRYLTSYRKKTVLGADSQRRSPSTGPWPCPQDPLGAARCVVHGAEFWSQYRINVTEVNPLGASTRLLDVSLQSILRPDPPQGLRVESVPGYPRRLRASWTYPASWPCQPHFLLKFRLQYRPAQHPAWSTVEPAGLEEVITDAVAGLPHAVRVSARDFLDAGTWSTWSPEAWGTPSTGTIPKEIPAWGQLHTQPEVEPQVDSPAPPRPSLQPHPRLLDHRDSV
Assay: SPR (Biacore T200), multi-cycle kinetics, 25 C, HBS-P+ pH 7.4 with 0.1% BSA
The read-out pKd is expressed as -log10 of concentration in moles per litre.

Request: Give the measured pKd for Humanised BSO-9A7 variant VH4/VL4 (antibody, V domains shown, Variable domains only; also called printed once as VH4/VH4) VH: QVQLVQSGAEVKKPGASVKVSCKASGYTFTNYWMHWLRQRPGQGLEWIGNIGPSDSKTHYNQKFKDRVTMTVDKSTSTAYMELSSLRSEDTAVYYCARGDYVLFTYWGQGTLVTVSS VL: DIVLTQSPATLSLSPGERATLSCRASQSISNNLHWYQQKPGQAPRLLIKYASQSISGIPARFSGSGSGTDFTLTISSLEPEDFAVYYCQQSYSWPLTFGQGTKLEIK
Result: 8.26

Request: Quickly give me recorded pKd for Humanised BSO-9A7 variant VH3/VL3 (antibody, V domains shown, Variable domains only) VH: QVQLVQSGAEVKKPGASVKVSCKASGYTFTNYWMHWLRQRPGQGLEWIGNIGPSDSKTHYNQKFKDRATLTVDKSTSTAYMELSSLRSEDTAVYYCARGDYVLFTYWGQGTLVTVSS VL: DIVLTQSPATLSLSPGERATLSCRASQSISNNLHWYQQKPGQAPRLLIKYASQSISGIPARFSGSGSGTDFTLTISSLEPEDFAVYFCQQSYSWPLTFGQGTKLEIK
Result: 8.44

Request: Name the recorded pKd of the item Humanised BSO-9A7 variant VH3/VL4 (antibody, V domains shown, Variable domains only) VH: QVQLVQSGAEVKKPGASVKVSCKASGYTFTNYWMHWLRQRPGQGLEWIGNIGPSDSKTHYNQKFKDRATLTVDKSTSTAYMELSSLRSEDTAVYYCARGDYVLFTYWGQGTLVTVSS VL: DIVLTQSPATLSLSPGERATLSCRASQSISNNLHWYQQKPGQAPRLLIKYASQSISGIPARFSGSGSGTDFTLTISSLEPEDFAVYYCQQSYSWPLTFGQGTKLEIK in your answer.
Result: 8.43

Request: Write down pKd measured for item Humanised BSO-9A7 variant VH4/VL3 (antibody, V domains shown, Variable domains only) VH: QVQLVQSGAEVKKPGASVKVSCKASGYTFTNYWMHWLRQRPGQGLEWIGNIGPSDSKTHYNQKFKDRVTMTVDKSTSTAYMELSSLRSEDTAVYYCARGDYVLFTYWGQGTLVTVSS VL: DIVLTQSPATLSLSPGERATLSCRASQSISNNLHWYQQKPGQAPRLLIKYASQSISGIPARFSGSGSGTDFTLTISSLEPEDFAVYFCQQSYSWPLTFGQGTKLEIK
Result: 8.25

Values were extracted from patent US20190389957A1.
